Biological target: HLA-B*07:02 (human)
Test: radioligand competition, purified MHC
We begin with a simple list: items and their reported IC50.

IRQEEVQEL (modifications not checked) [… (SEQ ID NO: 31)]; > 70 µM
DEFVVVTV (modifications not checked) [DEFVVVTV (SEQ ID NO: 11)]; 52.8 µM
EEFEPSTQYEY (modifications not checked) [… (SEQ ID NO: 20)]; > 70 µM
FGDDTVIEV (modifications not checked) [… (SEQ ID NO: 23)]; > 70 µM
APHGHVMVEL (modifications not checked) [… (SEQ ID NO: 14)]; 0.0061 µM
EIKESVQTF (modifications not checked) [… (SEQ ID NO: 15)]; > 70 µM
QLTPTWRVY (modifications not checked) [… (SEQ ID NO: 38)]; > 70 µM
LATNNLVVM (modifications not checked) [… (SEQ ID NO: 16)]; 0.055 µM

IN: Looking for the measured IC50 of KRVDWTIEY (modifications not checked) [… (SEQ ID NO: 29)] , can you help?
OUT: > 70 µM

IN: Field entry: ELPDEFVVV (modifications not checked) [… (SEQ ID NO: 12)]
OUT: > 70 µM

IN: Field entry: GLITLSYHL (modifications not checked) [… (SEQ ID NO: 5)]
OUT: 14.3 µM

IN: Field entry: SEFSSLPSY (modifications not checked) [… (SEQ ID NO: 27)]
OUT: > 70 µM

IN: Field entry: NATNVVIKV (modifications not checked) [… (SEQ ID NO: 37)]
OUT: > 70 µM

IN: Field entry: VGYLQPRTF (modifications not checked) [… (SEQ ID NO: 39)]
OUT: > 70 µM
